- System: INS1
- protocol.text: INS-1E survival protection against cytokine death – cell-based, luminescence, retest, dose response (AID 449756);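 further: cell death triggered by IL-1 beta plus TNF-alpha plus IFN-gamma mixture; protective hits raise ATP signal compared with cytokine alone wells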
- Format: functional
- experimental.setup: Rattus norvegicus
Where a name gives a salt, the structure may show the parent alone. Activity calls are given as the source filed them.
In this exercise, the only acceptable responses are active, inactive

How was CNC(=O)c1cc(Oc2ccc(NC(=O)Nc3ccc(Cl)c(C(F)(F)F)c3)cc2)ccn1 [SORAFENIB TOSYLATE] classified in this test? active

How was `CN(C)c1cc[n+](CC(=O)Nc2ccc(Oc3ccccc3)cc2)cc1` classified in this test? active

How was `CC1=NNC(=O)/C1=C\c1cn(-c2ccccc2)nc1-c1ccc(Cl)cc1` classified in this test? active

How was O=C1N=C(N/N=C/c2ccccc2O)SC1Cc1ccc(F)cc1 (stereo not drawn) classified in this test? active

How was `CC1CCN(C(=O)CCNS(=O)(=O)c2ccc(Br)cc2)CC1` classified in this test? inactive

How was `Cc1csc2ncnc(NCCc3ccccn3)c12` classified in this test? active

How was `Cc1cc(C)nc(SCC(=O)NC2=NN=C(c3ccc(Br)cc3)CS2)n1` classified in this test? active

How was `Cc1csc2ncnc(N3CCN(S(=O)(=O)c4cccc(C(F)(F)F)c4)CC3)c12` classified in this test? active

----------
- Test system: BJ
- protocol.text: BJ-TERT-LT-ST fibroblast viability loss – cell-based, RAS-independent, luminescence, dose response (AID 1935);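 further: BJ fibroblasts immortalized with TERT plus LT and ST oncogenes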
- Format: functional
- experimental.setup: Homo sapiens
Calls of active or inactive are those of the source.
reported.property: EC50

Entry `CCCC1=Nc2cc(C(=O)NCCCOCC)ccc2Sc2ccccc21` : reported EC50 = ? 0.607 µM (inconclusive)

Entry `COc1ccc2[nH]c(C(=O)N/N=C/c3ccc(OC)c(O)c3)cc2c1` : reported EC50 = ? 50.5 µM (inconclusive)

Entry CCCC(=O)NC(c1ccccc1Cl)c1ccc2cccnc2c1O (centres undefined) : reported EC50 = ? 2.49 µM (active)

Entry `COc1ccc(C(=O)c2ccc(N3CCOCC3)c([N+](=O)[O-])c2)cc1` : reported EC50 = ? > 150 µM (not active)

----------
- test.target: Nuclear receptor subfamily 5 group A member 2 (Homo sapiens, UniProt O00482);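 further: HEK293T cells transfected with LRH-1 and a StAR promoter luciferase reporter; potency for inhibitors that lower LRH-1 driven reporter light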
- Sequence (O00482 whole entry): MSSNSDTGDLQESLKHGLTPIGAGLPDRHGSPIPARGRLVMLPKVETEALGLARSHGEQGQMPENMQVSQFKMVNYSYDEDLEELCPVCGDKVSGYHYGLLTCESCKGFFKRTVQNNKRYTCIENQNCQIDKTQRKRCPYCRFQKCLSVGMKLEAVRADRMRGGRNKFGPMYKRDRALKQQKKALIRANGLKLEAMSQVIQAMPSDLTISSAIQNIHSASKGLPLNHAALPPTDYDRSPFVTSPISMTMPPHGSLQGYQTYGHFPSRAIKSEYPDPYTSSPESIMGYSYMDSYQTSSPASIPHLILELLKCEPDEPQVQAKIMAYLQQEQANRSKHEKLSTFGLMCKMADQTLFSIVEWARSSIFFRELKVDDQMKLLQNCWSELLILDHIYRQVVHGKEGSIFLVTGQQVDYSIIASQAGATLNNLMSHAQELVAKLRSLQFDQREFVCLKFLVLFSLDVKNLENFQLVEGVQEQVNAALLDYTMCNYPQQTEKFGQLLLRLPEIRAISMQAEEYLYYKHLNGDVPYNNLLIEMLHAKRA
- Assay type: functional, cell-based
Active and inactive are the calls of the source.
reported.property: IC50

Entry `CCOc1ccc(Cc2nnc(SCC(=O)Nc3ccc(C(C)=O)cc3)nc2O)cc1` : reported IC50 = ? 13.5 µM (inactive)

Entry `COc1ccc(CCNC(=O)CN2C(=O)NC3(CCCCC3)C2=O)cc1` : reported IC50 = ? 16.5 µM (inactive)

Entry CCOc1ccc(CCNC(=O)CN2C(=O)NC3(CCc4ccccc43)C2=O)cc1OCC (centres undefined) : reported IC50 = ? 16.7 µM (inactive)

Entry `Cc1ccc(C)c(NC(=O)CSc2nnc(-c3[nH]nc4ccccc34)o2)c1` : reported IC50 = ? 53.5 µM (inactive)

----------
- test.target: Peroxisome proliferator-activated receptor gamma/Nuclear receptor coactivator 1 (Homo sapiens)
- Sequence (P37231 whole entry): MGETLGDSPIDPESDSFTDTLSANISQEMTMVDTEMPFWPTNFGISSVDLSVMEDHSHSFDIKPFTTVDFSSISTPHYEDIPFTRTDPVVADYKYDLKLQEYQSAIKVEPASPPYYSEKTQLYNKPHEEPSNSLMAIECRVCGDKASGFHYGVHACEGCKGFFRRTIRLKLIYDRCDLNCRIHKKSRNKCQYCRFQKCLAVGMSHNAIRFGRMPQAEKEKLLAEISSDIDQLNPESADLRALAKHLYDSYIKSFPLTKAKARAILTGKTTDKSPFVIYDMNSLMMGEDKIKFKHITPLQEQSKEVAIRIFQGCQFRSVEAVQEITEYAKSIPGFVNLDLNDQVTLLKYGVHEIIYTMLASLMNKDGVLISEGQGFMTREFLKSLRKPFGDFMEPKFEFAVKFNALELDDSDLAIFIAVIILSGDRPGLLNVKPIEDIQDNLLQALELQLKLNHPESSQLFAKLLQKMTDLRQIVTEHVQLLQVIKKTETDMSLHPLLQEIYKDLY
- Sequence (Q15788 whole entry, further chain): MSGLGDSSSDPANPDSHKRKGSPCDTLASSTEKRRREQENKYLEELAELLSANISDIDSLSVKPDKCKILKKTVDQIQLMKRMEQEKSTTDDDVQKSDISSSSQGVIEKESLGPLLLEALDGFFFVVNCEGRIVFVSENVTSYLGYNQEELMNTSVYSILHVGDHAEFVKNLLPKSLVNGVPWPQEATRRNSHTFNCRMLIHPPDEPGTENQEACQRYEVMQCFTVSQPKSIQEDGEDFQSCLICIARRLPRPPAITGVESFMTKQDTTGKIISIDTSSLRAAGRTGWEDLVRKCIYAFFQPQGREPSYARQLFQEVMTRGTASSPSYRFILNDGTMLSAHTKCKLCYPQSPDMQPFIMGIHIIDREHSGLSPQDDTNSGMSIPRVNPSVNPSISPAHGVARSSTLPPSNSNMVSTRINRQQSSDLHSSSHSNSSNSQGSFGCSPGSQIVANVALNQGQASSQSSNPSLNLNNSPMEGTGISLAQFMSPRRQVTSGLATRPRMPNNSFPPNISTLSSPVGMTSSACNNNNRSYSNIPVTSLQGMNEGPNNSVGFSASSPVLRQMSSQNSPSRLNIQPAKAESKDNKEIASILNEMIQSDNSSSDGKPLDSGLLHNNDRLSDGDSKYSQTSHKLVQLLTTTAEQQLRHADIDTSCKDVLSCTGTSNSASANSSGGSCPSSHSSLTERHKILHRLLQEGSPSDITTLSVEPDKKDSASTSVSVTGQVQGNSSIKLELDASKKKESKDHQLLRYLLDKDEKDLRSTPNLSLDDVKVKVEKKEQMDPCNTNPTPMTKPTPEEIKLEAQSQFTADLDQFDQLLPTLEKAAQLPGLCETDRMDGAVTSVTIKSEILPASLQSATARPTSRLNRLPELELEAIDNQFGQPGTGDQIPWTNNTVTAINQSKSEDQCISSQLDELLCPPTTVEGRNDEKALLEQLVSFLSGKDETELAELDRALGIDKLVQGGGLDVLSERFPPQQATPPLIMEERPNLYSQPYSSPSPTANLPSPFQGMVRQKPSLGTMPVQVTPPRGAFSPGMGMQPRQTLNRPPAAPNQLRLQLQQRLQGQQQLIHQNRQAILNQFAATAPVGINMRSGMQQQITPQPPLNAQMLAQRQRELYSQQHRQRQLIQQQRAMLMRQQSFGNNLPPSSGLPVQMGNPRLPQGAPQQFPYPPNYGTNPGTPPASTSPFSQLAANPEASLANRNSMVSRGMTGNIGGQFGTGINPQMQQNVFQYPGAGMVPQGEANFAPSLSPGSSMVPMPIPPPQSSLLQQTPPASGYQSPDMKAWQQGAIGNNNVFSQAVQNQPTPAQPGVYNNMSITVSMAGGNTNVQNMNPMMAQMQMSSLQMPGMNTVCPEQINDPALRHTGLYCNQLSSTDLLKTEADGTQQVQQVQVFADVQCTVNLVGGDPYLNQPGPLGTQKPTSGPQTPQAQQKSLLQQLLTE
- protocol.text: TR-FRET dose response biochemical High Throughput Screening assay for agonists of the steroid receptor coactivator 1 (SRC-1) recruitment by the peroxisome proliferator-activated receptor gamma (PPAR gamma): non-selective agonists. [Related pubchem assays (depositor defined):AID1300, AID1808, AID504735, AID631]
- Format: protein assay
Active and inactive are the calls of the source.
In this exercise, the only acceptable responses are t for active, f for inactive

How was `Cc1ccc(-n2c(S)nnc2-c2cccc(C)c2)cc1` classified in this test? f

How was O=C1CC(Sc2nnc(-c3ccccc3)o2)C(=O)N1c1ccccc1 (stereo unspecified) classified in this test? f

How was `O=C(CSc1ncnc2c1oc1ccccc12)NC1CCCCC1` classified in this test? t

How was `CNC(=O)NC(=O)CSc1nc(-c2cccs2)c(C#N)c(=O)[nH]1` classified in this test? f

How was `COc1ccc(CNC(=O)CSc2nc(-c3ccccc3)cc(-c3cccs3)c2C#N)cc1` classified in this test? f

How was `CCOC(=O)c1sc2nc(C)nc(S)c2c1C` classified in this test? f
